System: A498 complex spheroid viability
RUN DESCRIPTION: Anticancer human tumor A498 cell line growth inhibition;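 also: spheroids exposed to agents for seven days before readout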;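 as to viability, T/C: 100% = DMSO vehicle-treated spheroids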
CONDITION NOTES: second compound 0.1 µM; first compound 0.1 µM; stronger effect = lower value
Just a reminder that ties go to condition not met: only viability, T/C strictly below 50% counts as condition met.

MOLECULE	DISCRETE LABEL
O=C(C=Cn1cnc(-c2cc(C(F)(F)F)cc(C(F)(F)F)c2)n1)NNc1cnccn1 + NC1CC1c1ccc(-c2cccc(O)c2)cc1	condition met
CC[C@@]1(O)C(=O)OCc2c1cc1n(c2=O)Cc2cc3c(CN(C)C)c(O)ccc3nc2-1 + NC1CC1c1ccc(-c2cccc(O)c2)cc1	condition met
O=C(c1cc(Cc2n[nH]c(=O)c3ccccc23)ccc1F)N1CCN(C(=O)C2CC2)CC1 + NC1CCC(NC2CC2c2ccccc2)CC1	condition not met
CC(C)c1c(-c2ccccc2)nc2c(C#N)c[nH]n2c1=O + NC1CCC(NC2CC2c2ccccc2)CC1	condition not met
CC1(C)CCC(CN2CCN(c3ccc(C(=O)NS(=O)(=O)c4ccc(NCC5CCOCC5)c([N+](=O)[O-])c4)c(Oc4cnc5[nH]ccc5c4)c3)CC2)=C(c2ccc(Cl)cc2)C1 + NC1CCC(NC2CC2c2ccccc2)CC1	condition not met
CC(C)c1c(-c2ccccc2)nc2c(C#N)c[nH]n2c1=O + NC1CC1c1ccc(-c2cccc(O)c2)cc1	condition not met
CC1COCCN1c1cc(C2(S(C)(=N)=O)CC2)nc(-c2ccnc3[nH]ccc23)n1 (configuration not stated) + NC1CC1c1ccc(-c2cccc(O)c2)cc1	condition not met
COc1cc(Nc2ncc3c(n2)-c2ccc(Cl)cc2C(c2c(F)cccc2OC)=NC3)ccc1C(=O)O + NC1CCC(NC2CC2c2ccccc2)CC1	condition not met
CC1COCCN1c1cc(C2(S(C)(=N)=O)CC2)nc(-c2ccnc3[nH]ccc23)n1 (configuration not stated) + NC1CCC(NC2CC2c2ccccc2)CC1	condition not met
COc1ccc([C@@H](O)c2cc(-c3ncnc4cc(N5CCOCC5)ccc34)c(F)cc2Cl)nn1 + NC1CCC(NC2CC2c2ccccc2)CC1	condition not met
CC(C)CC(NC(=O)CNC(=O)c1cc(Cl)ccc1Cl)B1OC(=O)CC(CC(=O)O)(C(=O)O)O1 (configuration not stated) + NC1CC1c1ccc(-c2cccc(O)c2)cc1	condition met

----------
Listing of entries alongside the reported pIC50.
Tested on: A498 complex spheroid viability
RUN DESCRIPTION: Anticancer human tumor A498 cell line growth inhibition;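 also: spheroids exposed to agents for seven days before readout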
CONDITION NOTES: curve of first compound; second compound 1 µM
pIC50: −log10 of the molar value.

MOLECULE	INEQUALITY SYMBOL	pIC50
O=C(c1cc(Cc2n[nH]c(=O)c3ccccc23)ccc1F)N1CCN(C(=O)C2CC2)CC1 + NC1CCC(NC2CC2c2ccccc2)CC1	<	5.00
NS(=O)(=O)OCC1CC(n2ccc3c(NC4CCc5ccccc54)ncnc32)CC1O (configuration not stated) + NC1CC1c1ccc(-c2cccc(O)c2)cc1	=	7.10
Nc1ccn(C2OC(CO)C(O)C2(F)F)c(=O)n1 (configuration not stated) + NC1CCC(NC2CC2c2ccccc2)CC1	>	9.02
CC[C@@]1(O)C(=O)OCc2c1cc1n(c2=O)Cc2cc3c(CN(C)C)c(O)ccc3nc2-1 + NC1CC1c1ccc(-c2cccc(O)c2)cc1	=	7.42
COc1cc(Nc2ncc3c(n2)-c2ccc(Cl)cc2C(c2c(F)cccc2OC)=NC3)ccc1C(=O)O + NC1CC1c1ccc(-c2cccc(O)c2)cc1	=	7.09
Nc1ccn(C2OC(CO)C(O)C2(F)F)c(=O)n1 (configuration not stated) + NC1CC1c1ccc(-c2cccc(O)c2)cc1	>	9.02
Cn1ncnc1C1c2n[nH]c(=O)c3cc(F)cc(c23)NC1c1ccc(F)cc1 (configuration not stated) + NC1CCC(NC2CC2c2ccccc2)CC1	<	7.00
O=C(C=Cn1cnc(-c2cc(C(F)(F)F)cc(C(F)(F)F)c2)n1)NNc1cnccn1 + NC1CC1c1ccc(-c2cccc(O)c2)cc1	=	8.04
COc1ccc([C@@H](O)c2cc(-c3ncnc4cc(N5CCOCC5)ccc34)c(F)cc2Cl)nn1 + NC1CC1c1ccc(-c2cccc(O)c2)cc1	=	7.02
CC1(C)CCC(CN2CCN(c3ccc(C(=O)NS(=O)(=O)c4ccc(NCC5CCOCC5)c([N+](=O)[O-])c4)c(Oc4cnc5[nH]ccc5c4)c3)CC2)=C(c2ccc(Cl)cc2)C1 + NC1CC1c1ccc(-c2cccc(O)c2)cc1	=	5.39
CC(C)CC(NC(=O)C(Cc1ccccc1)NC(=O)c1cnccn1)B(O)O (configuration not stated) + NC1CC1c1ccc(-c2cccc(O)c2)cc1	=	9.18
COc1ccc([C@@H](O)c2cc(-c3ncnc4cc(N5CCOCC5)ccc34)c(F)cc2Cl)nn1 + NC1CCC(NC2CC2c2ccccc2)CC1	=	6.89
CCN(c1cc(-c2ccc(CN3CCOCC3)cc2)cc(C(=O)NCc2c(C)cc(C)[nH]c2=O)c1C)C1CCOCC1 + NC1CC1c1ccc(-c2cccc(O)c2)cc1	<	5.52
O=C(C=Cc1cccc(S(=O)(=O)Nc2ccccc2)c1)NO + NC1CCC(NC2CC2c2ccccc2)CC1	=	6.60
COc1cc(Nc2ncc3c(n2)-c2ccc(Cl)cc2C(c2c(F)cccc2OC)=NC3)ccc1C(=O)O + NC1CCC(NC2CC2c2ccccc2)CC1	=	6.38
Nc1ncn(C2CC(O)C(CO)S2)c(=O)n1 (configuration not stated) + NC1CCC(NC2CC2c2ccccc2)CC1	=	6.95
O=C(C=Cn1cnc(-c2cc(C(F)(F)F)cc(C(F)(F)F)c2)n1)NNc1cnccn1 + NC1CCC(NC2CC2c2ccccc2)CC1	=	8.20
Nc1ccccc1NC(=O)c1ccc(CNC(=O)OCc2cccnc2)cc1 + NC1CC1c1ccc(-c2cccc(O)c2)cc1	=	6.55
CC(C)CC(NC(=O)CNC(=O)c1cc(Cl)ccc1Cl)B1OC(=O)CC(CC(=O)O)(C(=O)O)O1 (configuration not stated) + NC1CC1c1ccc(-c2cccc(O)c2)cc1	=	8.35
Nc1ccccc1NC(=O)c1ccc(CNC(=O)OCc2cccnc2)cc1 + NC1CCC(NC2CC2c2ccccc2)CC1	=	6.67
COc1cc(C2c3cc4c(cc3C(OC3OC5COC(C)OC5C(O)C3O)C3COC(=O)C23)OCO4)cc(OC)c1O (configuration not stated) + NC1CCC(NC2CC2c2ccccc2)CC1	<	5.52
CCN(c1cc(-c2ccc(CN3CCOCC3)cc2)cc(C(=O)NCc2c(C)cc(C)[nH]c2=O)c1C)C1CCOCC1 + NC1CCC(NC2CC2c2ccccc2)CC1	<	5.52
COc1cc(C2c3cc4c(cc3C(OC3OC5COC(C)OC5C(O)C3O)C3COC(=O)C23)OCO4)cc(OC)c1O (configuration not stated) + NC1CC1c1ccc(-c2cccc(O)c2)cc1	=	5.95
CC1COCCN1c1cc(C2(S(C)(=N)=O)CC2)nc(-c2ccnc3[nH]ccc23)n1 (configuration not stated) + NC1CCC(NC2CC2c2ccccc2)CC1	=	6.17
CCc1c2c(nc3ccc(O)cc13)-c1cc3c(c(=O)n1C2)COC(=O)[C@]3(O)CC + NC1CCC(NC2CC2c2ccccc2)CC1	>	9.02
CC1COCCN1c1cc(-c2ccnn2C)c2ccnc(-c3ccn[nH]3)c2n1 (configuration not stated) + NC1CC1c1ccc(-c2cccc(O)c2)cc1	=	7.43
CC(C)c1c(-c2ccccc2)nc2c(C#N)c[nH]n2c1=O + NC1CC1c1ccc(-c2cccc(O)c2)cc1	<	5.00
